Read-out: Lipoprotein lipase (LPL), LPL (gene 4023)
Experiment: LTEA_HepaRG_LPL: Life Technologies and Expression Analysis (LTEA) Assay for Lipoprotein lipase (LPL) using HepaRG (AID 2283515)
Conditions: mRNA level, 48 h; actives raise or lower the signal
The source made the active and inactive calls. The calls were made as follows: active = hit-call score of the fitted dose curve at least 0.9, where 1 is the maximum; inactive = score below 0.9.
measured.quantity: AC50

Examples from the recorded data:
Please fill in: AC50 reported for Cn1cnc([N+](=O)[O-])c1Sc1ncnc2nc[nH]c12 = inactive

Please fill in: AC50 reported for CCOC(=O)c1ccc(C2CCC(NC[C@H](O)COc3ccc(O)c(NS(C)(=O)=O)c3)CC2)cc1 (stereo partly specified) = inactive

Please fill in: AC50 reported for CC(C)CCCCCCOC(=O)c1ccc(C(=O)OCCCCCCC(C)C)c(C(=O)OCCCCCCC(C)C)c1 = inactive

Please fill in: AC50 reported for CNS(=O)(=O)c1cc(C(=O)N2CCC(CCN3C4CCC3CC(n3c(C)nc5ccccc53)C4)(c3cccc(F)c3)CC2)c(Cl)cc1F (stereo unspecified) = 18.2 µM (active)

Please fill in: AC50 reported for O=C(O)c1cccc(N(Cc2cccnc2)c2ccc(OC(F)F)c(OC(F)F)c2)c1 = inactive

Please fill in: AC50 reported for CCCCC(CC)COC(=O)c1ccc(C(=O)OCC(CC)CCCC)cc1 (stereo unspecified) = inactive

Please fill in: AC50 reported for Clc1nc(Cl)c(Cl)c(Cl)c1Cl = inactive

Please fill in: AC50 reported for CCC(C)(C)C(=O)O[C@H]1C[C@@H](C)C=C2C=C[C@H](C)[C@H](CC[C@@H]3C[C@@H](O)CC(=O)O3)[C@H]21 = inactive

Please fill in: AC50 reported for CCCCCCCCO = inactive

Please fill in: AC50 reported for Cn1c(=O)cc(Oc2ccc(F)cc2F)c2cnc(NCC(C)(C)O)nc21 = 9.98 µM (active)

Continuing:
Please fill in: AC50 reported for Cc1ccc(S(=O)(=O)O)cc1C = inactive

Please fill in: AC50 reported for CC(=O)c1ccc2c(c1)[C@H](NC(=O)c1ccc(F)cc1)[C@@H](O)C(C)(C)O2 = inactive

Please fill in: AC50 reported for O=C1CCC(N2C(=O)c3ccccc3C2=O)C(=O)N1 (stereo unspecified) = inactive

Please fill in: AC50 reported for CCCCCCCCCCCCCCCO = inactive

Please fill in: AC50 reported for CCCCC(CC)COC(=O)CCCCCCCCC(=O)OCC(CC)CCCC (stereo unspecified) = inactive

Please fill in: AC50 reported for CCc1cc(SCc2sc(-c3ccc(C(F)(F)F)cc3)nc2CN2CCN(c3ccc(OC)cc3)CC2)ccc1OCC(=O)O = 27.9 µM (active)
